B1: STK38L (parent)
chain: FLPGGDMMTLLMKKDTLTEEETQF

variants of: B1; test: protein stability index of a GFP-peptide fusion (GPS, HEK-293T) (PSI 1-6); higher = more stable; details: c terminus: a fixed tail appended;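 also: lentivirally expressed fusions sorted by FACS into six bins by GFP to DsRed ratio, PSI derived from sequencing read proportions per bin multiplied by bin number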

| Construct Sequence | protein stability index |
| --- | --- |
| FLPGGDMMTLLMKKDTLTEEETRF [Q23R] | 3.09 |
| FLPGGDMMTLLMLKDTLTEEETQF [K13L] | 2.05 |
| FLPCGDMMTLLMKKDTLTEEETQF [G4C] | 3.09 |
| FLPGGDMMYLLMKKDTLTEEETQF [T9Y] | 2 |

These entries and their values trace back to the supplement of paper PMC10567573.
